Reported fraction unbound values are given for each entry in this list.
# PROTOCOL: Unbound fraction in human plasma
# Format: ADME, cell-free
// print number alone

Solved entries (count: 4):
Exercise: Need fraction unbound of O=C1OC(c2ccccc2)CC(O)=C1Sc1ccccc1Cl (stereo unspecified) , thanks.
Key: 0.008

Exercise: Need fraction unbound of O=C1NC(c2ccccc2)CC(O)=C1Oc1ccccc1Cl (stereo unspecified) , thanks.
Key: 0.022

Exercise: Need fraction unbound of O=C1OC(c2ccccc2)CC(O)=C1Oc1ccccc1Cl (stereo unspecified) , thanks.
Key: 0.006

Exercise: Need fraction unbound of O=C1CC(c2ccccc2)CC(O)=C1Oc1ccccc1Cl (stereo unspecified) , thanks.
Key: 0.011

# evaluate next
Exercise: Need fraction unbound of O=C1NC(c2ccccc2)CC(O)=C1Sc1ccccc1Cl (stereo unspecified) , thanks.
Key: 0.003

----------
# PROTOCOL: Permeability from apical to basolateral side in MDCK cells
# Type: ADME, cell-based, Canis lupus familiaris
# CONDITION NOTES: dog
Reported Papp A→B values are given for each entry in this list.
# number only, unit ×10⁻⁶ cm/s dropped from output

Exercise: Need Papp A→B of O=C1CC(c2ccccc2)CC(O)=C1Oc1ccccc1Cl (stereo unspecified) , thanks.
Key: 11

Exercise: Need Papp A→B of O=C1OC(c2ccccc2)CC(O)=C1Sc1ccccc1Cl (stereo unspecified) , thanks.
Key: 3

Exercise: Need Papp A→B of O=C1NC(c2ccccc2)CC(O)=C1Nc1ccccc1Cl (stereo unspecified) , thanks.
Key: 19

Exercise: Need Papp A→B of O=C1OC(c2ccccc2)CC(O)=C1Oc1ccccc1Cl (stereo unspecified) , thanks.
Key: 4

Exercise: Need Papp A→B of O=C1NC(c2ccccc2)CC(O)=C1Sc1ccccc1Cl (stereo unspecified) , thanks.
Key: 7

Continuing:
Exercise: Need Papp A→B of O=C1CC(c2ccccc2)CC(O)=C1Sc1ccccc1Cl (stereo unspecified) , thanks.
Key: 12

----------
# PROTOCOL: Hepatic clearance in rat liver microsomes
# Format: ADME
OBSERVABLE: CLhep predicted (mL/min/kg)
# number only, unit mL/min/kg dropped from output

Exercise: Need CLhep predicted of O=C1OC2(CCc3c(-c4ccccc4)cccc32)CC(O)=C1Sc1ccccc1Cl (single isomer, unassigned; enantiomer A) , thanks.
Key: 41

----------
# TARGET: L-lactate dehydrogenase A chain (Homo sapiens)
pIC50: −log10 of the molar value.
Decide by pIC50: equal to or exceeding 5 means true (1), less means false (0).

Exercise: Say whether O=C1NC(c2ccccc2)CC(O)=C1Nc1ccccc1Cl (stereo unspecified) shows pIC50 of 5 or more.
Key: false (0)

Continuing:
Exercise: Say whether CC1(c2ccccc2)CC(O)=C(Sc2ccccc2Cl)C(=O)O1 (stereo unspecified) shows pIC50 of 5 or more.
Key: true (1)

Exercise: Say whether O=C1OC(c2c(Cl)cccc2Cl)CC(O)=C1Sc1ccccc1Cl (stereo unspecified) shows pIC50 of 5 or more.
Key: true (1)

Exercise: Say whether O=C1CC(c2ccccc2)CC(O)=C1Sc1ccccc1Cl (stereo unspecified) shows pIC50 of 5 or more.
Key: true (1)

Exercise: Say whether O=C1CC(c2ccccc2)CC(O)=C1Nc1ccccc1Cl (stereo unspecified) shows pIC50 of 5 or more.
Key: false (0)

Exercise: Say whether CC(C)C1CC(O)=C(Sc2ccccc2Cl)C(=O)O1 (stereo unspecified) shows pIC50 of 5 or more.
Key: false (0)

Exercise: Say whether O=C1OC(c2ccccn2)CC(O)=C1Sc1ccccc1Cl (stereo unspecified) shows pIC50 of 5 or more.
Key: true (1)
